Tested on: U2OS
Assay: Multiplex assay against U2OS
Format: toxicity, cell-based
Conditions: human, 24 h, 10 µM, compound concentration 10 uM, replicate 2
Rule for this label: y means Population Mitotic Cells (%) is less than 20%; n means Population Mitotic Cells (%) is at least 20%.

Worked set:
* COc1cc2nc(N3CCN(C(=O)COc4c(OC)cccc4C(C)C)CC3)nc(N)c2cc1OC.Cl.Cl | y
* CN1CCN2c3ccccc3Cc3ccccc3C2C1.Cl (stereo not drawn) [MIANSERIN HYDROCHLORIDE] | y
* Cn1cc(C(=O)OCC2CCN(CCNS(C)(=O)=O)CC2)c2ccccc21 | n
* OCCCNc1cc(-c2ccnc(Nc3cccc(Cl)c3)n2)ccn1 | y

Exam item: Please check: Population Mitotic Cells (%) for CCCCC[C@H](O)/C=C/[C@H]1[C@H](O)CC(=O)[C@@H]1CCCCCCC(=O)O , strictly under 20% or not?
Marked response: y

Exam item: Continue with C[C@@H]1CC(=O)Nc2cccc(-c3ccc4c(c3)c(-c3cnn(C)c3)nn4C)c2N1
Marked response: y

Exam item: Continue with CCn1c(-c2nc3cc(C(=O)N4CCCC(N)C4)ccc3n2C)cc2ccccc21.Cl (stereo not drawn)
Marked response: n

Exam item: Continue with Nc1nc(CC(=O)Nc2ccc(CCNC[C@H](O)c3ccccc3)cc2)cs1
Marked response: n

Exam item: Continue with CCC(=O)OCC(=O)[C@@]1(OC(=O)CC)[C@@H](C)C[C@H]2[C@@H]3CCC4=CC(=O)C=C[C@]4(C)[C@@]3(Cl)[C@@H](O)C[C@@]21C [BECLOMETHASONE DIPROPIONATE]
Marked response: n

Exam item: Continue with CN1CCN(c2ccc(Nc3c4ccccc4nc4ccccc34)cc2)CC1.Cl.Cl.O
Marked response: y

Exam item: Continue with CN(C)C/C=C/C(=O)Nc1ccc(C(=O)N2CCCC(Nc3ncc(Cl)c(-c4c[nH]c5ccccc45)n3)C2)cc1 (stereo not drawn)
Marked response: y

Reference source: ChEMBL document CHEMBL5058577
